test target: thrombin (Homo sapiens)
Construct: allowing factor Xa to convert prothrombin to thrombin
measurement protocol: Chemiluminescent substrate cleavage by purified thrombin (luciferase/ATP luminescence)
Type: biochemical
condition: 30 nM thrombin final, instead of plasma; assay as example 1
Structures can show the parent of a compound that is named as a salt.
Listing: RLU thrombin of selected compounds
Please give a number only; it is taken to be in RLU.

COCC(=O)NCCC(=O)NCC(=O)N[C@@H](CCCNC(=N)N)C(=O)Nc1ccc2nc(C3=N[C@@H](C(=O)O)CS3)sc2c1.O=C(O)C(F)(F)F :: 925567
N=C(N)NCCC[C@H](NC(=O)CNC(=O)CCN)C(=O)Nc1ccc2nc(C3=N[C@@H](C(=O)O)CS3)sc2c1.O=C(O)C(F)(F)F.O=C(O)C(F)(F)F [H-beta-Ala-Gly-Arg-aminoluciferine•2TFA] :: 292161
COCCOCCOCCOCCOCC(=O)NC(Cc1ccccc1)C(=O)NC(CCCNC(=N)N)C(=O)Nc1ccc2nc(C3=NC(C(=O)O)CS3)sc2c1.O=C(O)C(F)(F)F (stereo not drawn) :: 340768
COCCOCCOCC(=O)NCCC(=O)NCC(=O)N[C@@H](CCCNC(=N)N)C(=O)Nc1ccc2nc(C3=N[C@@H](C(=O)O)CS3)sc2c1 [TFA salt] :: 814171
COCCOCCOCCOCCOCC(=O)NCCC(=O)NCC(=O)N[C@@H](CCCNC(=N)N)C(=O)Nc1ccc2nc(C3=N[C@@H](C(=O)O)CS3)sc2c1.O=C(O)C(F)(F)F :: 293198

Tested on thrombin (Homo sapiens): NCCCC[C@H](NC(=O)[C@H](Cc1ccccc1)NC(=O)[C@@H]1CCC(=O)N1)C(=O)Nc1ccc2nc(C3=N[C@@H](C(=O)O)CS3)sc2c1 [PyroGlu-Phe-Lys-aminoluciferine•TFA, pyroGlu-Phe-Lys-aminoluciferin TFA salt] . Observed RLU thrombin: 139546
